# protocol_notes: Cytotoxicity against human Raji cells assessed as cell viability at 500 molar ratio
# Assay type: cell-based
# recorded_conditions: read-out: Activity

| compound | unit_string | viability at 500 molar ratio |
| --- | --- | --- |
| O=C(O[C@@H]1Cc2c(O)cc(O)cc2O[C@@H]1c1cc(O)c(O)c(O)c1)c1cc(O)c(O)c(O)c1 [EPIGALOCATECHIN GALLATE] | % | 80 |
| CC(C)c1cc(=O)c2c(O)c([C@@H]3O[C@H](CO)[C@@H](O)[C@H](O)[C@H]3OC(=O)c3cc(O)c(O)c(O)c3)c(O)cc2o1 | % | 80 |
| CC(C)c1cc(=O)c2c(O)cc(O)c([C@@H]3O[C@H](CO)[C@@H](O)[C@H](O)[C@H]3O)c2o1 | % | 80 |

====

# protocol_notes: Cytotoxicity against human Raji cells assessed as cell viability at 10 molar ratio
# Assay type: cell-based
# recorded_conditions: read-out: Activity
Recorded viability at 10 molar ratio by entry

| molecule | unit_string | viability at 10 molar ratio |
| --- | --- | --- |
| Cc1c(O)c(Cc2c(O)cc3oc(-c4ccc(O)c(O)c4)c(O[C@@H]4O[C@@H](C)[C@H](O)[C@@H](O)[C@H]4O)c(=O)c3c2O)c2oc(-c3ccc(O)c(O)c3)c(O[C@@H]3O[C@@H](C)[C@H](O)[C@@H](O)[C@H]3O)c(=O)c2c1O | % | 80 |
| CC(C)c1cc(=O)c2c(O)c([C@@H]3O[C@H](CO)[C@@H](O)[C@H](O)[C@H]3O)c(O)cc2o1 | % | 80 |
| O=C(O[C@@H]1Cc2c(O)cc(O)cc2O[C@@H]1c1cc(O)c(O)c(O)c1)c1cc(O)c(O)c(O)c1 [EPIGALOCATECHIN GALLATE] | % | 80 |

====

Reported EBV-EA activation relative to control (%) values for the following molecules.
# System: Raji
# protocol_notes: Inhibition of TPA-induced EBV-early antigen activation in human Raji cells assessed as EA activation at 10 molar ratio after 48 hrs relative to TPA
# Type: cell-based
# recorded_conditions: human gammaherpesvirus 4
measurement_type: EBV-EA activation relative to control (%)

| molecule | value_reported |
| --- | --- |
| CC(C)c1cc(=O)c2c(O)c([C@@H]3O[C@H](CO)[C@@H](O)[C@H](O)[C@H]3OC(=O)c3cc(O)c(O)c(O)c3)c(O)cc2o1 | 94.8 |
| CC(C)c1cc(=O)c2c(O)cc(O)c([C@@H]3O[C@H](CO)[C@@H](O)[C@H](O)[C@H]3OC(=O)c3cc(O)c(O)c(O)c3)c2o1 | 100 |
| CC(C)c1cc(=O)c2c(O)c([C@@H]3O[C@H](CO)[C@@H](O)[C@H](O)[C@H]3O)c(O)cc2o1 | 91 |
| Cc1c(O)c(Cc2c(O)cc3oc(-c4ccc(O)c(O)c4)c(O[C@@H]4O[C@@H](C)[C@H](O)[C@@H](O)[C@H]4O)c(=O)c3c2O)c2oc(-c3ccc(O)c(O)c3)c(O[C@@H]3O[C@@H](C)[C@H](O)[C@@H](O)[C@H]3O)c(=O)c2c1O [KUNZEAGIN A] | 90.5 |
| CC(C)c1cc(=O)c2c(O)cc(O)c([C@@H]3O[C@H](CO)[C@@H](O)[C@H](O)[C@H]3O)c2o1 | 100 |
| O=C(O[C@@H]1Cc2c(O)cc(O)cc2O[C@@H]1c1cc(O)c(O)c(O)c1)c1cc(O)c(O)c(O)c1 [EPIGALOCATECHIN GALLATE] | 87.7 |

====

# protocol_notes: Cytotoxicity against human Raji cells assessed as cell viability at 10 molar ratio
# Assay type: cell-based
# recorded_conditions: read-out: Activity

| molecule | viability at 10 molar ratio (%) |
| --- | --- |
| CC(C)c1cc(=O)c2c(O)cc(O)c([C@@H]3O[C@H](CO)[C@@H](O)[C@H](O)[C@H]3OC(=O)c3cc(O)c(O)c(O)c3)c2o1 | 80 |
| CC(C)c1cc(=O)c2c(O)c([C@@H]3O[C@H](CO)[C@@H](O)[C@H](O)[C@H]3OC(=O)c3cc(O)c(O)c(O)c3)c(O)cc2o1 | 80 |
| CC(C)c1cc(=O)c2c(O)cc(O)c([C@@H]3O[C@H](CO)[C@@H](O)[C@H](O)[C@H]3O)c2o1 | 80 |

====

Listed below: viability at 1000 molar ratio values for each entry.
# protocol_notes: Cytotoxicity against human Raji cells assessed as cell viability at 1000 molar ratio
# Type: cell-based
# recorded_conditions: read-out: Activity

| molecule | viability at 1000 molar ratio, % |
| --- | --- |
| CC(C)c1cc(=O)c2c(O)c([C@@H]3O[C@H](CO)[C@@H](O)[C@H](O)[C@H]3OC(=O)c3cc(O)c(O)c(O)c3)c(O)cc2o1 | 70 |
| CC(C)c1cc(=O)c2c(O)c([C@@H]3O[C@H](CO)[C@@H](O)[C@H](O)[C@H]3O)c(O)cc2o1 | 70 |
| CC(C)c1cc(=O)c2c(O)cc(O)c([C@@H]3O[C@H](CO)[C@@H](O)[C@H](O)[C@H]3O)c2o1 | 70 |

====

# protocol_notes: Cytotoxicity against human Raji cells assessed as cell viability at 100 molar ratio
# Format: cell-based
# recorded_conditions: read-out: Activity
Listed next: entries and their corresponding viability at 100 molar ratio.
measurement_type: viability at 100 molar ratio (%)

| molecule | measurement_type | value_reported |
| --- | --- | --- |
| Cc1c(O)c(Cc2c(O)cc3oc(-c4ccc(O)c(O)c4)c(O[C@@H]4O[C@@H](C)[C@H](O)[C@@H](O)[C@H]4O)c(=O)c3c2O)c2oc(-c3ccc(O)c(O)c3)c(O[C@@H]3O[C@@H](C)[C@H](O)[C@@H](O)[C@H]3O)c(=O)c2c1O | viability at 100 molar ratio | 80 |
| CC(C)c1cc(=O)c2c(O)c([C@@H]3O[C@H](CO)[C@@H](O)[C@H](O)[C@H]3O)c(O)cc2o1 | viability at 100 molar ratio | 80 |
| CC(C)c1cc(=O)c2c(O)c([C@@H]3O[C@H](CO)[C@@H](O)[C@H](O)[C@H]3OC(=O)c3cc(O)c(O)c(O)c3)c(O)cc2o1 | viability at 100 molar ratio | 80 |

====

# protocol_notes: Cytotoxicity against human Raji cells assessed as cell viability at 1000 molar ratio
# Type: cell-based
# recorded_conditions: read-out: Activity
measurement_type: viability at 1000 molar ratio

| compound | measurement_type | value_reported |
| --- | --- | --- |
| CC(C)c1cc(=O)c2c(O)cc(O)c([C@@H]3O[C@H](CO)[C@@H](O)[C@H](O)[C@H]3OC(=O)c3cc(O)c(O)c(O)c3)c2o1 | viability at 1000 molar ratio | 70% |
| O=C(O[C@@H]1Cc2c(O)cc(O)cc2O[C@@H]1c1cc(O)c(O)c(O)c1)c1cc(O)c(O)c(O)c1 [EPIGALOCATECHIN GALLATE] | viability at 1000 molar ratio | 70% |
| Cc1c(O)c(Cc2c(O)cc3oc(-c4ccc(O)c(O)c4)c(O[C@@H]4O[C@@H](C)[C@H](O)[C@@H](O)[C@H]4O)c(=O)c3c2O)c2oc(-c3ccc(O)c(O)c3)c(O[C@@H]3O[C@@H](C)[C@H](O)[C@@H](O)[C@H]3O)c(=O)c2c1O | viability at 1000 molar ratio | 70% |

====

Reported viability at 100 molar ratio values for the following molecules.
# protocol_notes: Cytotoxicity against human Raji cells assessed as cell viability at 100 molar ratio
# Type: cell-based
# recorded_conditions: read-out: Activity

| molecule | viability at 100 molar ratio [%] |
| --- | --- |
| CC(C)c1cc(=O)c2c(O)cc(O)c([C@@H]3O[C@H](CO)[C@@H](O)[C@H](O)[C@H]3O)c2o1 | 80 |
| O=C(O[C@@H]1Cc2c(O)cc(O)cc2O[C@@H]1c1cc(O)c(O)c(O)c1)c1cc(O)c(O)c(O)c1 [EPIGALOCATECHIN GALLATE] | 80 |
| CC(C)c1cc(=O)c2c(O)cc(O)c([C@@H]3O[C@H](CO)[C@@H](O)[C@H](O)[C@H]3OC(=O)c3cc(O)c(O)c(O)c3)c2o1 | 80 |
